# Measurement description: qHTS assay for small molecule activators of the heat shock response signaling pathway (AID 743210);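 also: HeLa cells with beta-lactamase reporter driven by heat shock elements; % is scaled to controls: 0 for no effect and ±100 for the full control effect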
# Experimental conditions: HeLa HSE-bla reporter, beta-lactamase ratio, 5 h; series mostly up to 62.6 µM
Inconclusive results are not listed. Active and inactive are the calls of the source. Calls follow the shape of the dose curve; as a rule, active = well fitted activation curve with a large enough effect in the signal ratio in the repeat runs, with a control signal flat (not every such curve was filed as active); inconclusive = weak or mixed curves; inactive = flat fitted curve, though single readings scatter; the % refers to the signal ratio.
Assay endpoint: outcome

Study these solved cases before continuing.
In [3]: df
Out[3]:
                       compound  assay_endpoint  recorded_result
0                 CCc1ccc(O)cc1         outcome         inactive
1               Oc1ccc2ccccc2c1         outcome         inactive
2  CCC(C)C=O (stereo not drawn)         outcome         inactive
3                O=Nc1ccc(O)cc1         outcome         inactive

For each listed entry, give its outcome.
1. O=S(=O)(O)c1cc(S(=O)(=O)O)c2c(N=Nc3ccccc3)c(O)ccc2c1
2. OCC1CCCO1 (stereo not drawn)

inactive
inactive

###

# Tested target: Cytochrome P450 2D6 (Homo sapiens)
# Measurement description: Cytochrome P450 Family 2 Subfamily D Member 6 (CYP2D6) small molecule antagonists: luciferase reporter qHTS assay (AID 1671196); also: nearly all actives have a fitted effect of over 50% in size
# Experimental conditions: P450-Glo CYP2D6 enzyme assay, luciferin luminescence, 1 h; series mostly up to 115 µM
Inconclusive results are not listed. Activity calls are given as the source filed them. Calls follow the shape of the dose curve; as a rule, active = well fitted inhibition curve with a large enough effect in the repeat runs; inconclusive = weak or mixed curves; inactive = no such curve, though single readings can be large or run the other way.
# valid calls are active, inactive; nothing else

I'd appreciate the recorded outcome for OCCOCCOCCOCCO from this test. inactive

Param item: CN(C)c1cccc(O)c1 active

Param item: Cc1cc(O)c2c(c1)C(=O)c1cc(O)cc(O)c1C2=O inactive

Param item: CC(C)Cc1ccccc1 inactive

Param item: c1ccc2[nH]cnc2c1 inactive

Param item: CCc1ccc(O)cc1 inactive

Param item: CC1CC(OC(=O)c2ccccc2O)CC(C)(C)C1 (stereo not drawn) inactive

Param item: OC[C@@H](O)[C@H](O)[C@H](O)[C@@H](O)CO inactive

###

# Measurement description: qHTS assay to identify small molecule agonists of the sonic hedgehog signaling (Shh) pathway - cell viability counter screen (AID 1259366); also: % is scaled to controls: 0 for no effect and ±100 for the full control effect; nearly all actives have a fitted effect of over 50% in size
# Experimental conditions: NIH/3T3 Gli1-Luc viability, CellTiter-Fluor, 24 h; series mostly up to 92.4 µM
Inconclusive results are not listed. Calls of active or inactive are those of the source. The call rests on the fitted dose curve; in most records, active means well fitted cell-killing curve with a large enough effect in the repeat runs; inconclusive means weak or mixed curves, or effect the other way; inactive means flat fitted curve, though single readings scatter.
# valid calls are label 1 (active), label 0 (inactive); nothing else

Compound	Discrete label
NC(=O)NNc1ccccc1	label 0
CCCCCC/C=C/CCCCCCCC(=O)O	label 0
CCCCCCCCCC(=O)O	label 0
OC[C@@H](O)[C@@H](O)[C@H](O)[C@@H](O)CO	label 0
CC(C)n1c(/C=C/[C@@H](O)C[C@@H](O)CC(=O)O)c(-c2ccc(F)cc2)c2ccccc21	label 0

I'd appreciate the recorded outcome for CC(=O)Nc1ccc(C(=O)O)cc1 from this test. label 0

Param item: CC(=O)[C@@]1(O)CC[C@H]2[C@@H]3CCC4=CC(=O)CC[C@]4(C)[C@H]3CC[C@@]21C label 0

Param item: C=C1CC[C@H](O)CC1=C/C=C1\CCC[C@]2(C)[C@@H]([C@H](C)/C=C/[C@H](C)C(C)C)CC[C@@H]12 label 0

Param item: C[C@@H]1O[C@@H](OC[C@H]2O[C@@H](Oc3c(-c4ccc(O)c(O)c4)oc4cc(O)cc(O)c4c3=O)[C@H](O)[C@@H](O)[C@@H]2O)[C@H](O)[C@H](O)[C@H]1O label 0

Param item: COCC(=O)O label 0

Param item: COC(=O)c1ccccc1O label 0

Param item: Nc1cc(-c2ccncc2)c[nH]c1=O label 0

Param item: C=C(C)C(=O)OCCCCCCCCCCCC label 0

Param item: CS(=O)(=O)c1ccc([C@@H](O)[C@@H](CO)NC(=O)C(Cl)Cl)cc1 label 0

Param item: O=C(O)c1cc(-c2ccccc2)nc2ccccc12 label 0

Param item: ClC1=C(Cl)C(Cl)(Cl)C(Cl)=C1Cl label 0

Param item: Cc1ccc(C(=O)O)o1 label 0

Param item: CCC(=O)O label 0
